# ASSAY_DETAILS: Solid-state chemical stability (long term and accelerated storage), total impurities by HPLC
# Type: physicochemical
# STATED_CONDITIONS: 25° C./60% RH, Initial
ENDPOINT_LABEL: Total impurities (%)
Numeric answer only, unit % assumed.

IN: Can you share its Total impurities? I mean this molecule: C[C@@]1(O)CCC[C@H]1n1c(=O)c(C(F)F)cc2cnc(NC3CCN(S(C)(=O)=O)CC3)nc21 [PF-06873600 free base (Form 1)]
OUT: 0.5

###

# ASSAY_DETAILS: Solid-state chemical stability (long term and accelerated storage), total impurities by HPLC
# Format: physicochemical
# STATED_CONDITIONS: 40° C./75% RH, 6 mos.
# Description: The chemical stability of PF-06873600 anhydrous free base (Form 1) was investigated at long term storage conditions (25° C./60% RH) for an extended time period and under accelerated stability conditions (40° C./75% RH) for a shorter period. Stability testing was conducted at 25° C./60% RH for 24 months (long term conditions) and at 40° C./75% RH for 6 months (accelerated conditions) and evaluated for appearance and purity by HPLC. […]
ENDPOINT_LABEL: Total impurities (%)
Numeric answer only, unit % assumed.

IN: Can you share its Total impurities? I mean this molecule: C[C@@]1(O)CCC[C@H]1n1c(=O)c(C(F)F)cc2cnc(NC3CCN(S(C)(=O)=O)CC3)nc21 [PF-06873600 free base (Form 1)]
OUT: 0.47

###

# ASSAY_DETAILS: Solid-state chemical stability (long term and accelerated storage), total impurities by HPLC
# Assay type: physicochemical
# STATED_CONDITIONS: 25° C./60% RH, 3 mos.
ENDPOINT_LABEL: Total impurities (%)
Numeric answer only, unit % assumed.

IN: Can you share its Total impurities? I mean this compound: C[C@@]1(O)CCC[C@H]1n1c(=O)c(C(F)F)cc2cnc(NC3CCN(S(C)(=O)=O)CC3)nc21 [PF-06873600 free base (Form 1)]
OUT: 0.49

###

# ASSAY_DETAILS: Solid-state chemical stability (long term and accelerated storage), total impurities by HPLC
# Format: physicochemical
# STATED_CONDITIONS: 40° C./75% RH, 3 mos.
ENDPOINT_LABEL: Total impurities (%)
Numeric answer only, unit % assumed.

IN: Can you share its Total impurities? I mean this molecule: C[C@@]1(O)CCC[C@H]1n1c(=O)c(C(F)F)cc2cnc(NC3CCN(S(C)(=O)=O)CC3)nc21 [PF-06873600 free base (Form 1)]
OUT: 0.47

###

# ASSAY_DETAILS: Solid-state chemical stability (long term and accelerated storage), total impurities by HPLC
# Format: physicochemical
# STATED_CONDITIONS: 25° C./60% RH, 6 mos.
ENDPOINT_LABEL: Total impurities
Form entry: enter the amount, then its unit.

IN: Can you share its Total impurities? I mean this molecule: C[C@@]1(O)CCC[C@H]1n1c(=O)c(C(F)F)cc2cnc(NC3CCN(S(C)(=O)=O)CC3)nc21 [PF-06873600 free base (Form 1)]
OUT: 0.48%

###

# ASSAY_DETAILS: Photostability study under ICH conditions, light source option 2
# Assay type: physicochemical
# STATED_CONDITIONS: ICH photostability, light source option 2, Initial
ENDPOINT_LABEL: Total impurities (%)
Numeric answer only, unit % assumed.

IN: Can you share its Total impurities? I mean this compound: C[C@@]1(O)CCC[C@H]1n1c(=O)c(C(F)F)cc2cnc(NC3CCN(S(C)(=O)=O)CC3)nc21 [PF-06873600 free base (Form 1)]
OUT: 0.58

###

# ASSAY_DETAILS: Solid-state chemical stability (long term and accelerated storage), total impurities by HPLC
# Format: physicochemical
# STATED_CONDITIONS: 25° C./60% RH, 12 mos.
# Description: The chemical stability of PF-06873600 anhydrous free base (Form 1) was investigated at long term storage conditions (25° C./60% RH) for an extended time period and under accelerated stability conditions (40° C./75% RH) for a shorter period. Stability testing was conducted at 25° C./60% RH for 24 months (long term conditions) and at 40° C./75% RH for 6 months (accelerated conditions) and evaluated for appearance and purity by HPLC. […]
ENDPOINT_LABEL: Total impurities
Form entry: enter the amount, then its unit.

IN: Can you share its Total impurities? I mean this compound: C[C@@]1(O)CCC[C@H]1n1c(=O)c(C(F)F)cc2cnc(NC3CCN(S(C)(=O)=O)CC3)nc21 [PF-06873600 free base (Form 1)]
OUT: 0.51%

###

# ASSAY_DETAILS: Solid-state chemical stability (long term and accelerated storage), total impurities by HPLC
# Format: physicochemical
# STATED_CONDITIONS: 25° C./60% RH, 24 mos.
# Method: The chemical stability of PF-06873600 anhydrous free base (Form 1) was investigated at long term storage conditions (25° C./60% RH) for an extended time period and under accelerated stability conditions (40° C./75% RH) for a shorter period. Stability testing was conducted at 25° C./60% RH for 24 months (long term conditions) and at 40° C./75% RH for 6 months (accelerated conditions) and evaluated for appearance and purity by HPLC. […]
ENDPOINT_LABEL: Total impurities

IN: Can you share its Total impurities? I mean this compound: C[C@@]1(O)CCC[C@H]1n1c(=O)c(C(F)F)cc2cnc(NC3CCN(S(C)(=O)=O)CC3)nc21 [PF-06873600 free base (Form 1)]
OUT: 0.59%
